Study target: recombinant eIF4E (Homo sapiens (Human))
Sequence (P06730 whole entry): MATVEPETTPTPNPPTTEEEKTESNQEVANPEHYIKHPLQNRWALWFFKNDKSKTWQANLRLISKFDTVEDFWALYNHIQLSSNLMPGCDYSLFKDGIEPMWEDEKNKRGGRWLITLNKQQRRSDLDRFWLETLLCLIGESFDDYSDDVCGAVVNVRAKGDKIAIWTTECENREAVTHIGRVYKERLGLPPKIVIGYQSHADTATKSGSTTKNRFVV
Experiment: Fluorescence polarization competition assay for eIF4E binding potency
Measurement setup: inhibition of eIF4E/EDA-m7GDP-ATTO-550 binding by 50%; Table 4B calculated values; read-out: IC50
Observed property: IC50 (µM)

- Given smiles: "C=Cc1c(C(=O)O)cccc1-c1cc(Cl)ccc1OCCn1c(C)nc2cc(C(F)(F)F)cc(C#N)c2c1=O"
  Measurement units: "µM"
  IC50: 0.234
- Given smiles: "Cc1nc2cc(C(F)(F)F)cc(C#N)c2c(=O)n1CC#Cc1ccc(Cl)cc1-c1ccnc2c(C(=O)O)csc12"
  Measurement units: "µM"
  IC50: 0.0357
- Given smiles: "C#Cc1cc(C#N)c2c(=O)n(CCOc3ccc(Cl)cc3-c3ccnc4c(C(=O)O)csc34)c(C)nc2c1"
  Measurement units: "µM"
  IC50: 0.0356
- Given smiles: "Cc1cc(-c2cc(Cl)ccc2OCCn2c(C)nc3c(C)ncc(C#N)c3c2=O)c2scc(C(=O)NS(C)(=O)=O)c2n1"
  Measurement units: "µM"
  IC50: 0.00597
- Given smiles: "CCCc1cc(-c2cc(Cl)ccc2OCCn2c(C)nc3cnc(C4CC4)c(C#N)c3c2=O)c2scc(C(=O)O)c2n1"
  Measurement units: "µM"
  IC50: 0.0245
- Given smiles: "Cc1nc2cnc(N(C)C3CCN(CC(F)(F)C(F)F)CC3)c(C#N)c2c(=O)n1CC#Cc1ccc(Cl)cc1-c1ccnc2c(C(=O)O)csc12"
  Measurement units: "µM"
  IC50: 0.0148
- Given smiles: "Cc1cc(-c2cc(Cl)ccc2OCCn2c(C)nc3cnc(-n4ccc5ccccc54)c(C#N)c3c2=O)c2scc(C(=O)O)c2n1"
  Measurement units: "µM"
  IC50: 0.0189
- Given smiles: "Cc1nc2cc(C(F)(F)F)cc(C#N)c2c(=O)n1CCOc1[nH]c(=O)c(Cl)cc1-c1ccnc2c(C(=O)O)csc12"
  Measurement units: "µM"
  IC50: 1.22
- Given smiles: "Cc1nc2cc(C(F)F)c(CN(C)C)c(C#N)c2c(=O)n1CCOc1ccc(Cl)cc1-c1ccnc2c(C(=O)O)csc12"
  Measurement units: "µM"
  IC50: 0.00665
- Given smiles: "Cc1cc(-c2cc(Cl)ccc2OCCn2c(C)nc3cc4c(c(C#N)c3c2=O)CCC4)c2scc(C(=O)O)c2n1"
  Measurement units: "µM"
  IC50: 0.0163

A = Cc1ccc2nc(C)n(CCOc3ccc(Cl)cc3-c3ccnc4c(C(=O)O)csc34)c(=O)c2c1C#N
B = Cc1cc(-c2cc(Cl)ccc2OCCn2c(C)nc3cc(C(F)(F)F)c(C(C)(C)O)nc3c2=O)c2scc(C(=O)O)c2n1
C = Cc1nc2cc(C(F)(F)F)c(N3CCN(C)CC3)nc2c(=O)n1CCOc1ccc(Cl)cc1-c1ccnc2c(C(=O)NS(C)(=O)=O)csc12
D = N#Cc1cc(C(F)(F)F)cc2nc(CF)n(CCOc3ccc(Cl)cc3-c3ccnc4c(C(=O)O)csc34)c(=O)c12
QUERY: Give the ascending ranking of the items by reported IC50. Answer format: the labels, in the requested order.
RESULT: B, C, A, D
